biological target: Nuclear receptor subfamily 1 group I member 2 (Homo sapiens); experiment: Human pregnane X receptor (PXR) activation by small molecules, qHTS assay (AID 1346985); conditions: DPX-2 HepG2 CYP3A4-luciferase, 24 h; series mostly up to 38.3 µM; also: nearly all actives have a fitted effect of over 40% in size
Results filed as inconclusive are left out. The source made the active and inactive calls. Calls follow the shape of the dose curve; as a rule, active = well fitted activation curve with a large enough effect in the repeat runs; inconclusive = weak or mixed curves; inactive = flat fitted curve, though single readings scatter.
Select the matching outcome among True (active), False (inactive)

molecule=CCN(CC)CCc1nc(-c2ccccc2)no1 category=False
molecule="O=C(c1ccccc1)c1ccc2n1CCC2C(=O)O (centres undefined)" category=False
molecule="Cc1ccc(C(=O)C(C)CN2CCCCC2)cc1 (centres undefined)" category=False

With those in mind, consider the next molecule.
For C=Cc1c(C)c2cc3[nH]c(cc4nc(cc5nc(cc1[nH]2)C(C)=C5CCC(=O)O)C(CCC(=O)O)=C4C)c(C)c3C=C , which call appears in the assay record?
False
